These entries and their values trace back to ChEMBL document CHEMBL4130496.

Tested on: SCC-15
Experiment: Cytotoxicity against human SCC15 cells transfected with PPARgamma siRNA assessed as reduction in cell viability at 50 uM after 24 hrs by resazurin reduction assay
Format: functional
Activity calls are given as the source filed them. No cut-off for these calls is given here.
READOUT_KIND: Activity

O=C(Cn1c2c(sc1=O)[C@@H]1c3ccccc3OC[C@H]1CS2)Nc1ccc(Cl)c(Cl)c1: inactive
O=C1c2ccccc2C(=O)c2sc3nc(=O)sc-3cc21: inactive
CCc1ccc(CCOc2ccc(CC3SC(=O)NC3=O)cc2)nc1 (centres undefined): 31.42%
CN(C)c1ccc(C2CC(c3ccccc3)=NN2C2=NC(=O)/C(=C3/C(=O)Nc4ccccc43)S2)cc1 (centres undefined): inactive
